Tested on: DeltatarO mutant
ASSAY_TEXT: S. aureus survival, RN4220 and DeltatarO strains – OD600, teichoic acid synthesis inhibitors, primary screen (AID 463173)
APPLIED_CONDITIONS: S. aureus RN4220 wild type/DeltatarO growth, OD600, 18 h, hits give low values, screened at 18.75 µg/mL (by protocol)
The campaign covered roughly 52,000 compounds. About 4,300 (8.3%) were called active. The sample holds actives, similar compounds and a random draw of the others, so the mix is not that of the screen.
survival listing for selected compounds.

[
  {
    "CHEM_SMILES": "Cc1cn2c(=O)cc(COC(=O)COc3ccc(F)cc3)nc2s1",
    "survival (%)": 70
  },
  {
    "CHEM_SMILES": "CCS(=O)(=O)c1ncc(Cl)c(C(=O)NCc2ccccc2)n1",
    "survival (%)": 50
  },
  {
    "CHEM_SMILES": "Cc1ccc(CNC(=O)c2nc(SCc3ccc(F)cc3)ncc2Cl)cc1",
    "survival (%)": 71
  },
  {
    "CHEM_SMILES": "CCCCCSc1ncnc2c1sc1nc(N3CCOCC3)c3c(c12)CCCC3",
    "survival (%)": 69
  }
]

---

Tested on: DeltatarO mutant
ASSAY_TEXT: S. aureus survival, RN4220 and DeltatarO strains – OD600, teichoic acid synthesis inhibitors, primary screen (AID 463173)
APPLIED_CONDITIONS: S. aureus RN4220 wild type/DeltatarO growth, OD600, 18 h, screened at 18.75 µg/mL (by protocol)
Hit rate of the full screen: of about 52,000 compounds, about 4,300 (8.3%) were called active. Rule as the data show it: active = survival mostly below about 52% (no sharp cut-off); inactive = mostly above about 56%. This excerpt belongs to a sample that is enriched for actives.
Outcome codes: 1 for active, 0 for inactive

[
  {
    "COMPOUND": "Cn1c(C=Nc2ccc(Cl)cc2)nc2ccccc21",
    "GROUP": 0
  },
  {
    "COMPOUND": "CCOc1ccccc1NC(=O)Cn1ncc2c([nH]c3ccccc32)c1=O",
    "GROUP": 0
  },
  {
    "COMPOUND": "Cc1ccc(CCNC(=O)Cn2ncc3c([nH]c4ccc(C)cc43)c2=O)cc1",
    "GROUP": 0
  },
  {
    "COMPOUND": "C#CCn1c(/C=C/c2ccc(Cl)cc2)nc2ccccc21",
    "GROUP": 1
  },
  {
    "COMPOUND": "CCc1nn2c(=O)cc(COC(=O)c3ccccc3NC(=O)c3ccc(C(C)(C)C)cc3)nc2s1",
    "GROUP": 0
  },
  {
    "COMPOUND": "CCOC(=O)c1cc(S(=O)(=O)NCc2ccccc2)[nH]n1",
    "GROUP": 0
  },
  {
    "COMPOUND": "CCOc1ccc(-c2cc(CCCC(=O)NCCc3cc(OC)c(OC)c(OC)c3)no2)cc1",
    "GROUP": 1
  },
  {
    "COMPOUND": "CCOC(=O)C1CCN(C(=O)Cn2ncc3c([nH]c4ccc(C)cc43)c2=O)CC1",
    "GROUP": 0
  },
  {
    "COMPOUND": "Cc1cccc(C(=O)NCC(=O)OCc2cc(=O)n3nc(C)sc3n2)c1",
    "GROUP": 0
  },
  {
    "COMPOUND": "CCOC(=O)C(C)ON1C(=O)c2ccccc2C1=O (stereo not drawn)",
    "GROUP": 0
  },
  {
    "COMPOUND": "Cc1ccc(OCCn2c(CNc3cccc(C)c3)nc3ccccc32)cc1",
    "GROUP": 1
  },
  {
    "COMPOUND": "Cc1cc2nnc(SCc3ccc(F)cc3)n2c2ccccc12",
    "GROUP": 1
  },
  {
    "COMPOUND": "C=C(C)Cn1c(SCC(=O)c2ccccc2)nc2sc3c(c2c1=O)CCCC3",
    "GROUP": 0
  }
]

---

Here, each record is paired with measured survival data.
Test system: DeltatarO mutant
ASSAY_TEXT: S. aureus survival, RN4220 and DeltatarO strains – OD600, teichoic acid synthesis inhibitors, primary screen (AID 463173)
APPLIED_CONDITIONS: S. aureus RN4220 wild type/DeltatarO growth, OD600, 18 h, hits give low values, screened at 18.75 µg/mL (by protocol)
In all, about 52,000 compounds went through this assay and about 4,300 (8.3%) were called active. This excerpt belongs to a sample that is enriched for actives.

[
  {
    "COMPOUND": "CC(C)Oc1ccc(CNC(=O)c2cc3cccc4c3n2CC(C)S4)cc1 (stereo unspecified)",
    "survival": "91% (inactive)"
  },
  {
    "COMPOUND": "CCCCC(=O)Nc1nnc(S(=O)(=O)N(C)Cc2ccccc2)s1",
    "survival": "91% (inactive)"
  },
  {
    "COMPOUND": "CCc1ccc(C2CC(=O)c3c([nH]c(C(=O)OCC4CCCCC4)c3C)C2)cc1 (stereo unspecified)",
    "survival": "89% (inactive)"
  },
  {
    "COMPOUND": "CC(NC(=O)C1CCN(S(=O)(=O)Cc2ccccc2)CC1)c1ccccc1 (stereo unspecified)",
    "survival": "68% (inactive)"
  },
  {
    "COMPOUND": "Cc1cccc(C(=O)Nc2nnc(S(=O)(=O)N(C)Cc3ccc(Cl)cc3)s2)c1",
    "survival": "95% (inactive)"
  },
  {
    "COMPOUND": "COc1ccc(N2CCN(c3csc4ccccc4c3=O)CC2)cc1",
    "survival": "81% (inactive)"
  }
]

---

System: DeltatarO mutant
ASSAY_TEXT: S. aureus survival, RN4220 and DeltatarO strains – OD600, teichoic acid synthesis inhibitors, primary screen (AID 463173)
APPLIED_CONDITIONS: S. aureus RN4220 wild type/DeltatarO growth, OD600, 18 h, hits give low values, screened at 18.75 µg/mL (by protocol)
In all, about 52,000 compounds went through this assay and about 4,300 (8.3%) were called active. Only a selection was taken, and actives are over-represented in it overall.
ENDPOINT_NAME: survival (%)

[
  {
    "COMPOUND": "CCc1ccc(NC(=O)c2ccc3c(O)c(S(=O)(=O)c4ccc(Cl)cc4)c(=O)[nH]c3c2)cc1",
    "TARGET_ENTITY": "DeltatarO mutant",
    "RESULT_VALUE": 75
  },
  {
    "COMPOUND": "CCOC(=O)c1c(NC(=O)Cc2coc3cc(C)ccc23)sc2c1CCCC2",
    "TARGET_ENTITY": "DeltatarO mutant",
    "RESULT_VALUE": 95
  },
  {
    "COMPOUND": "Cc1nn(CCCC(=O)NCc2ccccc2)c(=O)c2cc3sccc3n12",
    "TARGET_ENTITY": "DeltatarO mutant",
    "RESULT_VALUE": 76
  },
  {
    "COMPOUND": "Cc1cc(C)c(NC(=O)c2cc(S(=O)(=O)NCCC3=CCCCC3)ccc2F)c(C)c1",
    "TARGET_ENTITY": "DeltatarO mutant",
    "RESULT_VALUE": 85
  },
  {
    "COMPOUND": "CCCCN1C(=O)C(O)(c2c(C)[nH]c3ccccc23)c2cc(Br)ccc21 (stereo not given)",
    "TARGET_ENTITY": "DeltatarO mutant",
    "RESULT_VALUE": 27
  },
  {
    "COMPOUND": "N#Cc1ccc(-c2cccs2)nc1SCc1ccc(Cl)cc1Cl",
    "TARGET_ENTITY": "DeltatarO mutant",
    "RESULT_VALUE": 74
  },
  {
    "COMPOUND": "COc1ccc(-c2cn3c(n2)sc2cc(C(=O)NC4CCCCC4)ccc23)cc1",
    "TARGET_ENTITY": "DeltatarO mutant",
    "RESULT_VALUE": 79
  },
  {
    "COMPOUND": "Cc1ccc(NC(=O)c2cc(S(=O)(=O)NCCC3=CCCCC3)ccc2F)cc1F",
    "TARGET_ENTITY": "DeltatarO mutant",
    "RESULT_VALUE": 115
  },
  {
    "COMPOUND": "Cc1[nH]c2ccccc2c1C1(O)C(=O)N(Cc2ccccc2Cl)c2ccccc21 (stereo not given)",
    "TARGET_ENTITY": "DeltatarO mutant",
    "RESULT_VALUE": 51
  },
  {
    "COMPOUND": "Cc1ccc(C)c(CN2C(=O)C(O)(c3c(C)[nH]c4ccccc34)c3ccccc32)c1 (stereo not given)",
    "TARGET_ENTITY": "DeltatarO mutant",
    "RESULT_VALUE": 51
  },
  {
    "COMPOUND": "CCN1CCN(CCCNC(=O)c2cc3c(=O)n(C)c4ccccc4c3s2)CC1",
    "TARGET_ENTITY": "DeltatarO mutant",
    "RESULT_VALUE": 79
  },
  {
    "COMPOUND": "Cc1ccc(CNS(=O)(=O)c2ccc(F)c(C(=O)Nc3ccc(C)c(F)c3)c2)cc1",
    "TARGET_ENTITY": "DeltatarO mutant",
    "RESULT_VALUE": 46
  },
  {
    "COMPOUND": "O=C(Cn1ncc2c3ccccc3n(Cc3ccc(Cl)cc3)c2c1=O)NC1CCCCCC1",
    "TARGET_ENTITY": "DeltatarO mutant",
    "RESULT_VALUE": 96
  },
  {
    "COMPOUND": "Cc1cc(C)c2c(=O)cc(C(=O)Nc3ccc(S(=O)(=O)N(C)Cc4ccccc4)cc3)oc2c1",
    "TARGET_ENTITY": "DeltatarO mutant",
    "RESULT_VALUE": 61
  },
  {
    "COMPOUND": "Cc1ccc(NC(=O)c2ccc(NC(=O)N3CCSc4ncccc43)cc2)cc1Cl",
    "TARGET_ENTITY": "DeltatarO mutant",
    "RESULT_VALUE": 109
  }
]
